Target: Glucose-dependent insulinotropic receptor (Homo sapiens) (UniProt Q8TDV5)
Sequence (Q8TDV5 whole entry, looked up): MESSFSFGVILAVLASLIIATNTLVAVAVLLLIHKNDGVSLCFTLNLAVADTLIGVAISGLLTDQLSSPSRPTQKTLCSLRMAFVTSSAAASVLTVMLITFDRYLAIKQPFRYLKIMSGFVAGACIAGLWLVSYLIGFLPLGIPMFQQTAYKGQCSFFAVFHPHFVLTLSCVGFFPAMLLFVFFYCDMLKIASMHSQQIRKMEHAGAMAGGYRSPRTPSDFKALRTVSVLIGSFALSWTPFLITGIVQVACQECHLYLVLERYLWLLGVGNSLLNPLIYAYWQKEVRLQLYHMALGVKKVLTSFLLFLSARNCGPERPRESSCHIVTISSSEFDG
Test: off-target GPR119 activation – cell-based, PathHunter beta-arrestin, luminescence, set 2, counter-screen for GPR151 activator project, confirmation (AID 1508607);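 further: 0% = median of sample wells and 100% = wells given EA reagent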
Conditions: GPR119 PathHunter beta-arrestin cells, 90 min, at 11.2 µM
Among all 2,300 compounds or so, about 20 (0.9%) were called active.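 How the source made its calls: active means mean percent activation across replicates above the counterscreen hit cutoff of 9.17%; inactive means the rest.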 This excerpt belongs to a sample that is enriched for actives.
Outcome codes: active, inactive

OC(COc1ccc(CNCCc2cscn2)cc1)CN1CCc2ccccc2C1 (configuration not stated)    inactive
Cc1ccc(NC(=O)CN(C)S(=O)(=O)c2ccc(Br)cc2)cc1Cl    inactive
N#CC1=C2SCN(Cc3ccccc3)CN2C(=O)CC1c1cccc(F)c1 (configuration not stated)    inactive
Cc1nccc2[nH]c(=O)c(C(=O)NC3CCN(Cc4ccccc4)CC3)cc12    inactive
O=S(=O)(NCCC12CC3CC(CC(C3)C1)C2)c1cccc2nsnc12    inactive
COc1ccc(CCNc2ccnc(Nc3ccc(N4CCOCC4)cc3)n2)cc1    active
Cc1[nH]c2ccc(OCc3ccccc3)cc2c1CCNC(=O)COc1ccc(F)cc1F    inactive
N#CCCN1CCN(c2ccc(F)cc2[N+](=O)[O-])CC1    inactive
Cc1cc(Nc2ccc3c(c2)OCO3)nc(Nc2ccc(N3CCOCC3)cc2)n1    inactive
COc1cc(/C=C/C(=O)c2ccc(F)cc2)cc(OC)c1OC    inactive
COc1ccc(CCNc2ccnc(Nc3ccc(-n4ccnc4)cc3)n2)cc1    active
CCC(=O)N1CCN(c2ccc(NC(=O)C(C)(C)C)cc2)CC1    inactive
CCSc1nnc(CSc2ncccn2)n1-c1ccccc1    inactive
O=C(c1ccccc1)N1N=C(c2ccccc2)CC1(O)C(F)(F)C(F)(F)F (configuration not stated)    inactive
CCC(C)NC(=O)c1cc(=O)[nH]c2ccc(Br)cc12 (configuration not stated)    active
CCOC(=O)C1CCCN(c2c(Nc3cccc(C)c3)c(=O)c2=O)C1 (configuration not stated)    inactive
Cc1cc(Nc2ccc(N3CCOCC3)cc2)nc(Nc2ccc(-n3ccnc3)cc2)n1    inactive
CCC(CC)C(=O)Nc1nnc(SCC(=O)Nc2cc(C(F)(F)F)ccc2Cl)s1    inactive
c1ccc(Oc2nc(NC3CC3)c3ncn(-c4ccsc4)c3n2)cc1    active
O=c1oc2ccc3ccccc3c2cc1-c1nnc(Nc2ccc(Oc3ccc4ccccc4c3Cl)c(Cl)c2)s1    inactive
COc1cc2nc(SCC(N)=O)n3nc(CCn4nc(C)cc4C)nc3c2cc1OC    inactive
CCCCOc1ccc(C(=O)Nc2c3c(nn2-c2cccc(Cl)c2)CSC3)cc1    inactive
Clc1nc(NCc2ccccc2)c2ncn(-c3ccccc3)c2n1    inactive
CCOc1ccc(/C=C2\SC(=S)N(CC(=O)Nc3ccc(O)cc3)C2=O)cc1    inactive
CC(C)CC(NC(=O)C(C)NC(=O)CNC(=O)C(NC=O)C(C)C)C(=O)NC(C)C(=O)NC(C(=O)NC(C(=O)NC(C(=O)NC(Cc1c[nH]c2ccccc12)C(=O)NC(CC(C)C)C(=O)NC(Cc1c[nH]c2ccccc12)C(=O)NC(CC(C)C)C(=O)NC(Cc1c[nH]c2ccccc12)C(=O)NC(CC(C)C)C(=O)NC(Cc1c[nH]c2ccccc12)C(=O)NCCO)C(C)C)C(C)C)C(C)C (configuration not stated)    active
COc1ccc(Cn2c(C)c(C)n3c4c(=O)n(CCCO)c(=O)n(C)c4nc23)cc1    inactive
COCC1CCN(c2nc3nonc3nc2NC2CCCC2)CC1    inactive
COc1cc(/C=N/NC(=O)CCCC(=O)N/N=C/c2ccc(O)c(OC)c2)ccc1O    inactive
CCC(=O)N1CCc2cc(S(=O)(=O)NCCN(CC)c3ccccc3)ccc21    inactive
CCOC(=O)N1CCN(C(=S)Nc2ccc(C)cc2)CC1    inactive
COc1cc2[nH]c(=O)n(CCC(=O)N3CCC(N4CCCCC4)CC3)c(=O)c2cc1OC    inactive
Cc1cc(OCC(=O)Nc2sc(C)c(C)c2C(N)=O)ccc1Br    inactive
Cc1nc2n(n1)C(c1ccc(Cl)cc1)C=C(c1ccc(Cl)cc1)N2 (configuration not stated)    inactive
COC(=O)c1c(OCC2CCCCO2)cc(=O)n2c1CCN(Cc1ccsc1)CC2 (configuration not stated)    inactive
CC(=O)c1c(C)oc2c1c1c(c3ccccc32)OCN(C2CCCC2)C1    inactive
CCC(C)NC(=O)c1ccc(-n2c(=S)[nH]c3ccccc3c2=O)cc1 (configuration not stated)    inactive
O=C(COc1ccccc1[N+](=O)[O-])N/N=C/c1ccc(Br)cc1    inactive
CCN1CCC(N(Cc2ccc(F)cc2)C(=O)Nc2ccccc2F)CC1    inactive
CCc1ccc(C2CC(c3ccccc3)Nc3nc(N)nn32)cc1 (configuration not stated)    inactive
COc1ccc(-c2noc(CCC(=O)Nc3ccc(C)c(C)c3)n2)cc1    inactive
CCOC(=O)c1nc(NCc2ccccc2)c2ccccc2n1    inactive
COc1cc(/C=C2/C(=N)N3OC(C)=CC3=NC2=O)ccc1OCCOc1ccc(C)cc1    inactive

* * *

Biological target: Glucose-dependent insulinotropic receptor (Homo sapiens) (UniProt Q8TDV5)
Experiment: off-target GPR119 activation – cell-based, PathHunter beta-arrestin, luminescence, set 2, counter-screen for GPR151 activator project, confirmation (AID 1508607);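 further: 0% = median of sample wells and 100% = wells given EA reagent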
Conditions: GPR119 PathHunter beta-arrestin cells, 90 min, at 11.2 µM, active compounds read high
Screen size: about 2,300 compounds; about 20 (0.9%) were called active. Only a selection was taken, and actives are over-represented in it overall.
Measured activation of individual entries
Recorded endpoint: activation

Cc1ccn2c(-c3csc(Nc4ccccc4)n3)c(C)nc2c1    -1.87% (inactive)
CCOC(CNc1ncnc2sc(C)c(C)c12)OCC    0.97% (inactive)
CCOC(=O)N1CCN(C(=O)c2ccc3c(c2)NC(=O)C(CSCc2cc(C)ccc2C)N3)CC1 (stereo not given)    2.54% (inactive)
C=CCOC(=O)c1[nH]c2c(c1C)C(=O)C(C(=O)OC)C(C)C2 (stereo not given)    2.72% (inactive)
CCC(C(=O)N1CCOCC1)n1c2ccccc2c2cn[nH]c(=O)c21 (stereo not given)    -3.25% (inactive)
O=C(O)c1ccc(CN(Cc2ccc(Cl)cc2)C(=S)Nc2ccc(Oc3ccccc3)cc2)cc1    -1.29% (inactive)
O=C(CNc1ccccc1)N/N=C/c1cc([N+](=O)[O-])ccc1O    -3.89% (inactive)
CSc1nc2sccn2c(=O)c1C(=O)NCc1ccccc1Oc1ccccc1    -1.15% (inactive)
COc1ccc(Br)cc1CNC(=O)Cc1c(C(=O)O)[nH]c2ccccc12    4.16% (inactive)
Cc1ccc2c(c1)c(=O)c1ccccc1n2CC(=O)Nc1cccc(Cl)c1C    -2.08% (inactive)

* * *

Molecular target: Glucose-dependent insulinotropic receptor (Homo sapiens)
Assay: off-target GPR119 activation – cell-based, PathHunter beta-arrestin, luminescence, set 2, counter-screen for GPR151 activator project, confirmation (AID 1508607);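 further: 0% = median of sample wells and 100% = wells given EA reagent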
Conditions: GPR119 PathHunter beta-arrestin cells, 90 min, at 11.2 µM, active compounds read high
In all, about 2,300 compounds went through this assay and about 20 (0.9%) were called active. What follows is part of a selection rich in actives, with near analogues and random picks from the rest.
Recorded endpoint: activation (%)

CCOc1ccccc1NC(=S)N(CCOC)C(C)c1ccccn1 (stereo unspecified)    -1.68
N#C/C(=C/c1cc(Cl)ccc1Cl)c1nc2ccccc2c(=O)[nH]1    -3.12
O=C(CSc1ccc2nnc(-c3ccncc3)n2n1)Nc1ccc(C(F)(F)F)cc1    -0.42
O=C(CCc1nnc2n(Cc3ccccc3)c(=O)c3ccccc3n12)NCCN1CCCC1    -0.83
C(=N\Nc1nnnn1-c1cccc2ccccc12)/c1ccc2c(c1)OCO2    3.7
COc1cc(S(=O)(=O)N2CCN(c3ccc(C)c(C)c3)CC2)ccc1F    1.41

* * *

Measured activation of individual entries
Target: Glucose-dependent insulinotropic receptor (Homo sapiens) (UniProt Q8TDV5)
Experiment: off-target GPR119 activation – cell-based, PathHunter beta-arrestin, luminescence, set 2, counter-screen for GPR151 activator project, confirmation (AID 1508607);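 further: 0% = median of sample wells and 100% = wells given EA reagent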
Conditions: GPR119 PathHunter beta-arrestin cells, 90 min, at 11.2 µM, active compounds read high
Hit rate of the full screen: of about 2,300 compounds, about 20 (0.9%) were called active. Many of the other results were omitted from the sample, so actives are more common in it than they were.
Recorded endpoint: activation

CC(C)c1ccc(N=c2c([N+](=O)[O-])nn(-c3ccccc3)n2O)cc1    5.25% (inactive)
CCOc1cc(/C=C2/C(=N)N3OC(C)=CC3=NC2=O)ccc1OCc1ccc2c(c1)OCO2    2.7% (inactive)
O=[N+]([O-])c1c(Cl)cc(O)c2c1C1C=CCC1C(c1ccc(Cl)cc1Cl)N2 (centres undefined)    5.29% (inactive)
CCN(CC)c1cc(C)c2ccccc2n1    1.75% (inactive)
